The origin of these recorded values is patent US20150141411A1.

- Target Under Test: γ-secretase (Homo sapiens, UniProt P49768)
- Construct: endogenous in cells; host or cells: SKNBE2 human neuroblastoma cells (carrying hAPP 695 wild type as substrate)
- Procedure Text: Screening for γ-secretase-modulating activity: Aβtotal in supernatant of SKNBE2 cells carrying hAPP 695 wild type (Alphalisa)
- Type: cell-based
- Conditions Used: SKNBE2 human neuroblastoma cells carrying hAPP 695 wild type, overnight incubation, Aβtotal in cell supernatant
pIC50: −log10 of the molar value.
What pIC50 was measured for each of the following?

[ask] Under γ-secretase (Homo sapiens, UniProt P49768): report pIC50 of Cc1cn(-c2ccc3n(c2=O)CC(C)N(Cc2cn(-c4ccccc4)c4cc(Br)ccc24)C3=O)cn1 (stereo not drawn) .
[reply] 5.01

[ask] Please report pIC50 with γ-secretase (Homo sapiens, UniProt P49768) for item Cc1cn(-c2c(C)cc3n(c2=O)C[C@@H](C)N(Cc2cc(C(F)(F)F)cc(C(F)(F)F)c2)C3=O)cn1 .
[reply] < 5.00

[ask] // fetch pIC50 for Cc1cn(-c2ccc3n(c2=O)C[C@@H](C)N(Cc2cc(OC(C)C)c(Cl)cc2F)C3=O)cn1 ; system: γ-secretase (Homo sapiens, UniProt P49768)
[reply] < 5.00

[ask] Tell me pIC50 of COc1cccc(CN2C(=O)c3ccc(-n4cnc(C)c4)c(=O)n3C[C@H]2C)c1 when tested on γ-secretase (Homo sapiens, UniProt P49768).
[reply] < 5.00

[ask] Supply pIC50 measured with γ-secretase (Homo sapiens, UniProt P49768) for Cc1cn(-c2ccc3n(c2=O)C[C@@H](C)N(CCc2ccccc2)C3=O)cn1 .
[reply] < 5.00

[ask] Given Cc1cn(-c2ccc3n(c2=O)CCN(CCc2ccc(Cl)cc2)C3=O)cn1 , report its pIC50 on γ-secretase (Homo sapiens, UniProt P49768).
[reply] < 5.00
